# MEASUREMENT_DESCRIPTION: amyloid nucleation score (Sup35N fusion, yeast selection) (log enrichment); library NNK2; higher = more nucleation; inactive = no reads after selection;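 also: zero at mode of non-aggregating sequences after 7 days selection at 30°C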
READOUT_KIND: amyloid nucleation score

Here are 5 substances together with their reported answers.
• FRFWLIDAHLLWDFSYLDTR = 3.28
• IGLNTYTMF = 0.282
• VGEKCDL = -0.023
• LRKALIDAFRT = 2.18
• DQLVQGYGNTGWQLGYRMAG = 5.35

Which measured amyloid nucleation score value corresponds to "LMFMLRYPLHASWLGSTHVY" ? 0.422

Which measured amyloid nucleation score value corresponds to "CCVMVELLVYFPM" ? 1.88

Which measured amyloid nucleation score value corresponds to "NLFYKKSLRLCYGLLQLRDF" ? inactive

Which measured amyloid nucleation score value corresponds to "LVSFRKPILTSQ" ? 0.164

Which measured amyloid nucleation score value corresponds to "GISCYMAPSGCRHNSVMSLW" ? 0.611

Which measured amyloid nucleation score value corresponds to "WGTCMCRKWASHFDREC" ? 2.55
